biological target: human CXCR4 receptor (Homo sapiens); experiment: Measurement of intracellular Ca+2 responses (FLIPR), antagonism of the SDF-1α response; details: HEK-Gqi5 cells stably expressing human CXCR4; antagonism of SDF-1α at 1.9 nM (EC65); Fluo-4 calcium, FLIPR
Sequence (P61073 whole entry): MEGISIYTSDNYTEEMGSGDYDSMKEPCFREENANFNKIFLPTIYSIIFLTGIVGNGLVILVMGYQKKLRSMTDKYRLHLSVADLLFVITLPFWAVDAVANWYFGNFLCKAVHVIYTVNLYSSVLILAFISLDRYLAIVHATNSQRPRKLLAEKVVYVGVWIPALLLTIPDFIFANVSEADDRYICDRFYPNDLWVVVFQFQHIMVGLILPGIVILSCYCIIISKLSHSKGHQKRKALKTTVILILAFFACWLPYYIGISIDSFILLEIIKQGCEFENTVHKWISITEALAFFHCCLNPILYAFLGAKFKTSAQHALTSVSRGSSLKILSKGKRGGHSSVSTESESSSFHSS
RESULT TYPE: pIC50
pIC50 is defined as minus the log10 of a concentration measured in mol/L.

Prompt: Report pIC50 under test system human CXCR4 receptor (Homo sapiens) for `COc1cccc(N(C)C)c1CN1CCC(Nc2nc(NCCN(C)C)nc3c2CCC3)CC1` .
Response: 5.53

Prompt: Report pIC50 under test system human CXCR4 receptor (Homo sapiens) for `CN(C)CCNc1nc(NC2CCN(Cc3c(OCCN(C)C)cccc3N(C)C)CC2)c2sccc2n1` .
Response: 6.96

meta.source: patent US9090624B2
